The following binders are shown together with reported glycan array binding signal (z-score) values.
target: Fuc(a1-2)Gal(b1-4)[Fuc(a1-3)]GlcNAc(b1-3)[Neu5Ac(a2-6)Gal(b1-4)GlcNAc(b1-6)]Gal(b1-4)Glc; assay: glycan array binding signal (z-score within array); higher = stronger binding; conditions: glycan notation: IUPAC condensed, linker removed
Only a selection was taken, and the strongest signals are over-represented in it overall.
Give the figure only, with no unit attached.

Example binders with recorded glycan array binding signal (z-score):
Pbx2CASH domain (Cryptococcus neoformans) (protein) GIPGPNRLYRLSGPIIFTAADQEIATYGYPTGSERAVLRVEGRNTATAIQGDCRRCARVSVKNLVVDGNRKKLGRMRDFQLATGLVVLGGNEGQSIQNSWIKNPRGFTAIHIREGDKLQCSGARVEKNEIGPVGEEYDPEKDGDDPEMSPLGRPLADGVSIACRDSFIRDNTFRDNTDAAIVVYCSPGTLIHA; 0.299
FimA-N3 (Actinomyces oris) (protein) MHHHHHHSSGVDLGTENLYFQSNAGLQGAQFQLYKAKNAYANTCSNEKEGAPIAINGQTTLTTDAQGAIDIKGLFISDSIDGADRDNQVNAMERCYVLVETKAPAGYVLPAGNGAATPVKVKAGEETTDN; -0.472

Kindly consider the entry below.
## Task Name the recorded glycan array binding signal (z-score) for Epa13 (Candida glabrata) (protein) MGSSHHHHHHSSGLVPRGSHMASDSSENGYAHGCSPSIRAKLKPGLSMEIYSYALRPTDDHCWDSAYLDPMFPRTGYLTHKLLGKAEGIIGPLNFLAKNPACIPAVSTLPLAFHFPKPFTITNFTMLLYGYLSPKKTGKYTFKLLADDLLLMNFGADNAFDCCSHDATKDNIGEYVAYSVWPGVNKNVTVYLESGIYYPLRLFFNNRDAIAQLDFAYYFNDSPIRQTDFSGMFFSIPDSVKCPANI .
## Result -0.526
